I'd appreciate it if you could supply GI50 values for the items below.
system: SR; assay: NCI tumour cell line growth inhibition, 48 h
Active and inactive are the calls of the source. No stated cut-off is given here; in the data, active = GI50 up to about 1.1 µM and inactive = higher.

Record excerpt, results attached:
[ask] Check the records and state GI50 for C=CC1C(OC2OC(CO)C(O)C(O)C2O)OC=C(C(=O)OC)C1CC1CC(=O)CC(CCc2ccc(O)cc2)O1 (stereo not given)
[reply] > 100 µM (inactive)

[ask] Return GI50 (reported value) for this compound: C=CCO[C@]1(CC=C)C(=O)C(=O)OC1C1COC(C)(C)O1 (stereo not given in full)
[reply] 22.9 µM (inactive)

[ask] Identify the reported GI50 for the following entry. O=S(=O)(c1ccccc1)c1nccs1
[reply] > 100 µM (inactive)

Fill in GI50 for each of the 2 compounds listed.
1. OCN(CO)c1ccc2c(c1)Cc1cc(F)ccc1-2
2. COC(=O)C1=C(OC(=O)c2ccccc2)C(C(=O)OC)[C@@]2(O)[C@@H](C(=O)OC)[C@H](C)C[C@@H]1[C@@H]2C(=O)OC (stereo not given in full)

[reply]
["22.6 µM (inactive)", "21.5 µM (inactive)"]

Give GI50 for all compounds that follow.
1. O=C1N[C@@H]2CCCC[C@@H]2C12CCCCC2
2. CCN(CC)C(=S)SNCc1ccc(S(N)(=O)=O)cc1
3. CCc1oc2ccc(OC)c3c2c1C=CC=C3
4. CC1=CCC[C@H]2[C@](C)(CC3=CC(=O)C(SCC(C)C)=CC3=O)[C@@H](C)CC[C@]12C
5. O=[N+]([O-])c1ccc(Cl)c2c([N+](=O)[O-])cccc12

[reply]
["> 100 µM (inactive)", "1.28 µM (inactive)", "> 100 µM (inactive)", "7.29 µM (inactive)", "3.95 µM (inactive)"]
